Molecular target: human CCK1 receptor (Homo sapiens)
Construct: expressed in transfected cells
Assay: competition binding of [125I]-BH-CCK-8S at cloned human CCK1 receptor
measurementName: pKi
Answers are plain numbers, as −log10 of the molar value.

In one line, give reported pKi of the entry "Cc1cccc(NC(=O)N[C@@H]2N=C(c3ccccc3)c3ccccc3N(C)C2=O)c1" . 6.61

----------
Target: canine CCK2 receptor (Canis lupus familiaris, UniProt P30552)
Sequence (P30552 whole entry): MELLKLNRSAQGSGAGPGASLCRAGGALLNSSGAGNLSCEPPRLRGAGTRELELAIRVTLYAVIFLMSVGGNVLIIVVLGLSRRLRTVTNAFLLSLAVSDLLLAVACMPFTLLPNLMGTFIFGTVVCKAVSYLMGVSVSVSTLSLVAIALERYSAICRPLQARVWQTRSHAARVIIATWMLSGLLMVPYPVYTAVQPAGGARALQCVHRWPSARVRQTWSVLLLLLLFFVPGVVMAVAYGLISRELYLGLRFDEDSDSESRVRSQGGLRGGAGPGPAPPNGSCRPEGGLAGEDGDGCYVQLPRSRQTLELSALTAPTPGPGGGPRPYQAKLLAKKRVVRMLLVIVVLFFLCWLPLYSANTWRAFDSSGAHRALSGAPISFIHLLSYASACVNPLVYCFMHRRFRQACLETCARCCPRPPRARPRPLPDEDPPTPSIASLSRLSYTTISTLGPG
Assay: competition binding of [125I]-BH-CCK-8S at canine CCK2 receptor
Exercise: state measured pKi for each of the compounds provided.
One number for each entry, as −log10 of the molar value.

Batch of 2 compounds: report pKi for each.
1. Cc1cccc(NC(=O)N[C@@H]2N=C(c3ccccc3)c3ccccc3N(CC(=O)c3ccccc3C)C2=O)c1
2. Cc1cccc(NC(=O)N[C@@H]2N=C(c3ccccc3)c3ccccc3N(C)C2=O)c1

1. 9.71
2. 7.03

----------
Target: human CCK1 receptor (Homo sapiens, UniProt P32238)
Construct: expressed in transfected cells
Sequence (P32238 1-428): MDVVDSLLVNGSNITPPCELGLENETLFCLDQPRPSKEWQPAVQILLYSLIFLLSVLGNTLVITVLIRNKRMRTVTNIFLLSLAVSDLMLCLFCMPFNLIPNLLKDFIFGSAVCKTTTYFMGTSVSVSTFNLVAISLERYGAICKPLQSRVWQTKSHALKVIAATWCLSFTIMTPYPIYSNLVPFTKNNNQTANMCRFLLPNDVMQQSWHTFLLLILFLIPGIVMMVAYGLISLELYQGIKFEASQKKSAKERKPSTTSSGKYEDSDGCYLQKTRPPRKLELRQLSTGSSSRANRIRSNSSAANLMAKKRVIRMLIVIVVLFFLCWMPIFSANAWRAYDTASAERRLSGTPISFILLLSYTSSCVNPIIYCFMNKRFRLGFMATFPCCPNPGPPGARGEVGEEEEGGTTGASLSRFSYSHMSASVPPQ
Assay: competition binding of [125I]-BH-CCK-8S at cloned human CCK1 receptor
Conditions: Human CCK1; [125I]-BH-CCK-8S radiolabel; n = 3, ± s.e. mean
measurementName: nH (Hill slope)

Past entries and their recorded results:
INSERT INTO measurements (compound, targetofassay, result) VALUES
  ('CCCCCN(CCCOC)C(=O)[C@@H](CCC(=O)O)NC(=O)c1ccc(Cl)c(Cl)c1 [dexloxiglumide]', 'human CCK1 receptor (Homo sapiens, UniProt P32238)', '0.91 ± 0.18'),
  ('Cc1cccc(NC(=O)N[C@@H]2N=C(c3ccccc3)c3ccccc3N(C)C2=O)c1', 'human CCK1 receptor (Homo sapiens, UniProt P32238)', '1.32 ± 0.14'),
  ('CNc1cccc(NC(=O)N[C@@H]2N=C(c3ccccn3)c3ccccc3N(CC(=O)C(C)(C)C)C2=O)c1', 'human CCK1 receptor (Homo sapiens, UniProt P32238)', '0.95 ± 0.07');

In one line, give reported nH (Hill slope) of the entry "Cc1cccc(NC(=O)N[C@@H]2N=C(c3ccccc3)c3ccccc3N(CC(=O)c3ccccc3C)C2=O)c1" . 1.15 ± 0.14

----------
Biological target: canine CCK2 receptor (Canis lupus familiaris)
Assay: competition binding of [125I]-BH-CCK-8S at canine CCK2 receptor
Conditions: Canine CCK2; [125I]-BH-CCK-8S radiolabel; n = 3, ± s.e. mean
measurementName: nH (Hill slope)
Answers are plain numbers.

INSERT INTO measurements (molecule, quantitativeresult) VALUES
  ('Cc1cccc(NC(=O)N[C@@H]2N=C(c3ccccc3)c3ccccc3N(CC(=O)c3ccccc3C)C2=O)c1', 0.92),
  ('CN1C(=O)[C@@H](NC(=O)c2cc3ccccc3[nH]2)N=C(c2ccccc2)c2ccccc21', 0.87),
  ('CCCCCN(CCCOC)C(=O)[C@@H](CCC(=O)O)NC(=O)c1ccc(Cl)c(Cl)c1 [dexloxiglumide]', 0.71),
  ('CNc1cccc(NC(=O)N[C@@H]2N=C(c3ccccn3)c3ccccc3N(CC(=O)C(C)(C)C)C2=O)c1', 0.91);

In one line, give reported nH (Hill slope) of the entry "Cc1cccc(NC(=O)N[C@@H]2N=C(c3ccccc3)c3ccccc3N(C)C2=O)c1" . 0.95
